Target: UniProt:P13807
Sequence (P13807 whole entry): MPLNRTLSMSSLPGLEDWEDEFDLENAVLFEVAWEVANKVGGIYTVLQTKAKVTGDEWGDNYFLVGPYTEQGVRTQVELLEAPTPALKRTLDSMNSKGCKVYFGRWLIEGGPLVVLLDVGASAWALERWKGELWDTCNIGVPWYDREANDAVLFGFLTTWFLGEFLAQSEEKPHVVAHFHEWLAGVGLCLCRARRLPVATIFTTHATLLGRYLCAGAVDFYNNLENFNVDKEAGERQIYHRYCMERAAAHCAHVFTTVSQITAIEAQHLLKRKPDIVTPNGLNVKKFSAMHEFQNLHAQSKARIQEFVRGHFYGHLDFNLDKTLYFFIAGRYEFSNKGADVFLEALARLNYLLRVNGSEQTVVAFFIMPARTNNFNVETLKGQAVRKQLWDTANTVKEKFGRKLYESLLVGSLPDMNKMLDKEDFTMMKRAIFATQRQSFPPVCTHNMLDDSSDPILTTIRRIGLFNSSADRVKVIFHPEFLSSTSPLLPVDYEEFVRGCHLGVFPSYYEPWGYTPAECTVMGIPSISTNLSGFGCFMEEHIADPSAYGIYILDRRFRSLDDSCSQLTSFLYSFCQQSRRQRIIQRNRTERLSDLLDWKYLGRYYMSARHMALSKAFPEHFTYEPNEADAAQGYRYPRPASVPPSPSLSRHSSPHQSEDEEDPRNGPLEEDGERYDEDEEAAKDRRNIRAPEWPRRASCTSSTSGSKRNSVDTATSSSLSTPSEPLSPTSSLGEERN
Assay: Activation of human recombinant muscle GYS1 expressed in insect sf9 cells using glycogen and UDP-glucose as substrates assessed as concentration required to 200% activation by spectrophotometry
Consider the following compounds; for each one, report its log10 Activity.
Record value = log10 of Activity given in µM.

Lookup: Requested field: log10 Activity. Item: "Cc1cc(F)c(F)cc1-c1ccc(OCc2cccc3c(=O)n(-c4ccc(F)cc4)[nH]c23)cc1"
Found: 0.27

Lookup: Requested field: log10 Activity. Item: "COc1cc(F)c(F)cc1-c1ccc(OCc2cccc3c(=O)n(-c4ccc(F)cc4)[nH]c23)cc1"
Found: 0.30

Lookup: Requested field: log10 Activity. Item: "O=c1c2cccc(COc3ccc(-c4cc(F)c(F)cc4F)cc3)c2[nH]n1CCO"
Found: -0.66

Lookup: Requested field: log10 Activity. Item: "O=c1c2cccc(COc3ccc(-c4cc(F)c(F)cc4F)cc3)c2[nH]n1C[C@@H](O)CO"
Found: -0.49

Lookup: Requested field: log10 Activity. Item: "Cc1cc(F)c(F)cc1-c1ccc(OCc2cccc3c(=O)n(C[C@H](O)CO)[nH]c23)cc1"
Found: -0.96

Lookup: Requested field: log10 Activity. Item: "Cc1cc(F)c(F)cc1-c1ccc(OCc2cccc3c(=O)n(CC(=O)O)[nH]c23)cc1"
Found: -0.48

Lookup: Requested field: log10 Activity. Item: "Cc1cc(F)c(F)cc1-c1ccc(OCc2cccc3c(=O)n(C)[nH]c23)cc1"
Found: -0.89

Lookup: Requested field: log10 Activity. Item: "COCCn1[nH]c2c(COc3ccc(-c4cc(F)c(F)cc4OC)cc3)cccc2c1=O"
Found: -0.96
